- Test system: PC-3
- method-description: NCI tumour cell line growth inhibition, 48 h
The source made the active and inactive calls. No stated cut-off is given here; in the data, active = GI50 up to about 1.1 µM and inactive = higher. Peptide text beside a SMILES is read from it. * marks the point of attachment. Boc = CC(C)(C)OC(=O)*; OBn = c1ccc(CO*)cc1
Outcome codes: t (active), f (inactive)

[
  {
    "compound": "CC(NC(=O)C(NC(=O)OC(C)(C)C)C(C)C)C(=O)N1CCCC1C(=O)NCC(=O)NC(C(=O)NCC(=O)OCc1ccccc1)C(C)C (stereo not given) (Boc-VAPGVG-OBn; configuration not given here)",
    "cat": "f"
  },
  {
    "compound": "CC1C2CC(C(C3C(=O)C4CC3C(C)(C)C4C)C2=O)C1(C)C (stereo not given)",
    "cat": "f"
  },
  {
    "compound": "O=C1OC(c2ccccc2Br)=N/C1=C/c1ccccc1",
    "cat": "f"
  },
  {
    "compound": "CC(C)C1=CC2=C(C(=O)C1=O)C13CCCC(C)(C)C1CC2OC3=O (stereo not given)",
    "cat": "f"
  },
  {
    "compound": "NCC(O)CN.Oc1c(Cl)c(Cl)c(Cl)c(Cl)c1Cl",
    "cat": "f"
  },
  {
    "compound": "O=C(O)[C@@H]1[C@H](C(=O)O)[C@H](C(=O)O)C[C@@H]1C(=O)O",
    "cat": "f"
  },
  {
    "compound": "CC(=O)C(=[N+]=[N-])C(=O)OCCOC(=O)C(=[N+]=[N-])C(C)=O",
    "cat": "t"
  },
  {
    "compound": "COc1ccc2c(c1)N=C(N)n1c(nc3ccccc31)S2",
    "cat": "f"
  },
  {
    "compound": "CC(=O)N1C2=CCCC2(C)c2ccccc21 (stereo not given)",
    "cat": "f"
  },
  {
    "compound": "Cc1cc(C)c2c(=O)n(CN3CCN(c4ccccc4)CC3)sc2n1",
    "cat": "f"
  }
]
